# Tested System: Nonstructural protein 3 (Zika virus, UniProt A0A024AXB9)
# Sequence (A0A024AXB9 whole entry): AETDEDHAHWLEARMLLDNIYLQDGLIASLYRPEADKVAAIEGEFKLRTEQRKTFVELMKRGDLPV
# Assay Comment: Inhibition of N-terminal His6-SUMO tagged Zika virus Puerto Rico NS2B-NS3 linked protease expressed in Escherichia coli BL21 Codon Plus (DE3) cells preincubated for 10 mins followed by pyr-TGKR-AMC addition and measured every 5 secs for 2 mins by fluorometric enzyme assay
Readout Label: IC50 (µM)

• N=C(N)NCCC[C@H](NC(=O)c1nccs1)C(=O)N[C@@H](CCCCN)C(=O)N[C@H](C(N)=O)c1ccc(OCc2ccc(C(F)(F)F)cc2)cc1 = 1.04

====

# Tested System: Nonstructural protein 3 (Zika virus)
# Assay Comment: Inhibition of N-terminal His6-SUMO tagged Zika virus Puerto Rico NS2B-NS3 unlinked protease expressed in Escherichia coli BL21 Codon Plus (DE3) cells preincubated for 10 mins followed by pyr-TGKR-AMC addition and measured every 5 secs for 2 mins by fluorometric enzyme assay
pIC50: −log10 of the molar value.
Readout Label: pIC50

• N=C(N)NCCC[C@H](NC(=O)c1nccs1)C(=O)N[C@@H](CCCCN)C(=O)N[C@H](C(N)=O)c1ccc(OCc2ccc(C(F)(F)F)cc2)cc1 = 5.97
